system: SK-MEL-2 melanoma; experiment: NCI-60 one-dose screen, 48 h (100 = growth as untreated, 0 = no growth, -100 = all killed); settings: 10 µM unless noted
This is part of a sample that, as a whole, favours compounds with a hit. Of some 83,000 tested, about 20% had one in any assay.

{"columns": ["COMPOUND", "growth, %"],
 "data": [
  ["O=[N+]([O-])c1ccc2c(N=Nc3ccc4ccccc4c3O)c(O)cc(S(=O)(=O)O)c2c1", 102],
  ["CN(C)CCOc1ccc2c(c1)C(=O)/C(=C\\c1ncc([N+](=O)[O-])n1C)C2", -72.5],
  ["O=C1c2ccccc2C(=O)c2sc(Nc3cccc(Cl)c3)nc21", -16],
  ["CC(=O)ON=C1C=CC(=C(C#N)c2ccccc2)C=C1", 41.2],
  ["NC(=S)N/N=C/c1ccc(Cl)s1", 105],
  ["Oc1ccc(/C=N/NC(=S)Nc2ccccc2)nc1", 11.8],
  ["CN1c2ccccc2C(C)(C)C12C=Cc1cc(O)ccc1O2 (stereo unspecified)", 57.5],
  ["CN(C)c1ccc(/C=N/N=C(\\C#N)[S][Sn]([Cl])([c]2ccccc2)[c]2ccccc2)cc1", 40.3],
  ["O=C(Nc1ccccc1)c1cc(Cl)ccc1O", -6.3],
  ["CC(=Nc1ccc(N(C)C)cc1)c1ccccc1", 78.4],
  ["CCCCCCCCCCCCCCCCCCOP(=O)([O-])OC1CC[N+](C)(C)CC1", -14.6]
]}

* * *

test system: SW-620 colon; experiment: NCI-60 one-dose screen, 48 h (100 = growth as untreated, 0 = no growth, -100 = all killed); conditions: 10 µM
About 83,000 compounds went through this panel and 20% of them were active in at least one assay; those are over-represented in the sample as a whole.

{"columns": ["SMILES_ENTRY", "growth [%]"],
 "data": [
  ["COc1ccc(-c2cscc2N)cc1", 88.5],
  ["CN(C)C(=O)c1ccc(SC(=S)NCc2ccccc2)cc1", 98.9],
  ["O=C(Nc1c(Cl)cccc1Cl)Oc1cccc2cccnc12", 26.8],
  ["O=C(Nc1cccc(Br)c1)Oc1cccc2cccnc12", 106]
]}

* * *

test system: SNB-19 CNS; experiment: NCI-60 one-dose screen, 48 h; conditions: 10 µM unless noted
The panel holds about 83,000 compounds, 20% with a hit somewhere; the sample as a whole holds those more often. The source made the active and inactive calls. The calls were made as follows: active = growth percent below 10; inactive = the rest.
Outcomes: active, inactive

{"columns": ["COMPOUND", "GROUP"],
 "data": [
  ["CC1OC(OC2C(OC3CCC4(C)C(CCC5(C)C4CC=C4C6CC(C)(C)CCC6(CO)C(O)CC45C)C3(C)C)OC(C(=O)O)C(OC3OC(COC4OC(CO)C(O)C(O)C4O)C(O)C(O)C3O)C2O)C(O)C(O)C1O (stereo unspecified)", "active"],
  ["COc1ccccc1OC(=O)Oc1ccccc1OC", "inactive"],
  ["O=C(/C=C\\c1ccccc1)N1c2ccccc2CC1c1c[nH]c2ccccc12 (stereo unspecified)", "inactive"],
  ["CC(C)(C)CC(C)(C)c1ccc(OCCSC(=N)N)cc1", "inactive"],
  ["CCC(c1cccc(O)c1)C(CC)c1cccc(O)c1 (stereo unspecified)", "inactive"],
  ["O=[N+]([O-])c1ccc(N=Nc2ccc(O)cc2O)cc1", "inactive"],
  ["CCC(CCCN(CC)CCc1ccccc1)OC(=O)c1cc(OC)c(OC)c(OC)c1 (stereo unspecified)", "inactive"],
  ["c1ccc2c(c1)Nc1cc3ccccc3cc1N2", "inactive"],
  ["CCCCCC(CCCCC)C(=O)O", "inactive"],
  ["CCCCCCCCCCCCCCCCN(CC)CC", "active"],
  ["Oc1ccc(/C=N/NC(=S)Nc2ccccc2)nc1", "inactive"]
]}

* * *

Overview of reported growth across a group of compounds:
system: BT-549 breast; assay: NCI-60 one-dose screen, 48 h (100 = growth as untreated, 0 = no growth, -100 = all killed); conditions: 10 µM unless noted
Compounds without any hit were thinned out: in the full panel of roughly 83,000, 20% have a hit.

{"columns": ["COMPOUND", "growth / %"],
 "data": [
  ["C=CCOc1ccc(N=NC(C#N)C#N)cc1", 92.1],
  ["CC1OC(OC2C(OC3CCC4(C)C(CCC5(C)C4CC=C4C6CC(C)(C)CCC6(CO)C(O)CC45C)C3(C)C)OC(C(=O)O)C(OC3OC(COC4OC(CO)C(O)C(O)C4O)C(O)C(O)C3O)C2O)C(O)C(O)C1O (stereo unspecified)", -92.5],
  ["CC(=O)ON=C1C=CC(=C(C#N)c2ccccc2)C=C1", 50.7],
  ["Cn1c2ccccc2c2nnc(N/N=C/c3ccccn3)nc21", -24.2],
  ["O=C(/C=C/C=C/c1ccccc1)c1ccco1", 113],
  ["S=C(NCCNC(=S)[S][Sn]([c]1ccccc1)([c]1ccccc1)[c]1ccccc1)[S][Sn]([c]1ccccc1)([c]1ccccc1)[c]1ccccc1", -78.8],
  ["Cc1ccc2nc(C[n+]3ccc4ccccc4c3)ccc2c1", 21.7],
  ["Oc1c(Br)cc(Cl)cc1C(c1cc(Cl)cc(Br)c1O)C(Cl)(Cl)Cl", 28],
  ["CCC1OC(OC)C=CC1=O (stereo unspecified)", 88.8],
  ["O=C(O)c1ccc2c3c(ncnc13)-c1ccccc1C2=O", 33.8],
  ["CCC(=O)Sc1ccccc1C(=O)Nc1ccc(Cl)cc1", 10.2]
]}

* * *

test system: NCI-H226 lung; assay: NCI-60 one-dose screen, 48 h; settings: 10 µM unless noted
Compounds without any hit were thinned out: in the full panel of roughly 83,000, 20% have a hit. Activity calls are given as the source filed them. Rule for the calls: active = growth percent below 10; inactive = the rest.
Classes used: active, inactive

{"columns": ["COMPOUND", "GROUP"],
 "data": [
  ["N[C@H](C(=O)O)[C@@H]1CC(Cl)=NO1", "inactive"],
  ["Nc1ccc(SSc2ccc(N)cc2)cc1", "inactive"],
  ["CCCCCCCCCCCCCCCCN(CC)CC", "active"],
  ["CCCCCCC(C)c1ccccc1O (configuration not stated) (tested in a mixture with another compound)", "inactive"],
  ["CCC(c1cccc(O)c1)C(CC)c1cccc(O)c1 (configuration not stated)", "inactive"],
  ["CN(Cc1cnc2nc(N)nc(N)c2n1)c1ccc(C(=O)NC(CCC(=O)O)C(=O)O)cc1 (configuration not stated)", "inactive"],
  ["CCC(CC)COC(=O)c1ccc(O)c(O)c1", "inactive"],
  ["Cc1c2ccccc2c(C)c2c1ccc1ccccc12", "inactive"],
  ["CCOC(=O)/C(=C\\c1ccc(-c2ccccc2)cc1)C(C)=O", "inactive"],
  ["Cc1cc(C(C)(CC(C)C)c2ccc(O)c(C)c2)ccc1O", "inactive"],
  ["Oc1ccc(/C=N/NC(=S)Nc2ccccc2)nc1", "active"],
  ["N#CSCc1ccc(Cl)c(CSC#N)c1", "inactive"]
]}

* * *

test system: HOP-92 NSCLC; assay: NCI-60 one-dose screen, 48 h (100 = growth as untreated, 0 = no growth, -100 = all killed); conditions: 10 µM unless noted
The panel holds about 83,000 compounds, 20% with a hit somewhere; the sample as a whole holds those more often.
MEASURED_ATTRIBUTE: growth (%)

{"columns": ["COMPOUND", "TEST_SYSTEM", "UNIT", "REPORTED_VALUE"],
 "data": [
  ["S=C(N/N=C/c1ccccn1)Nc1ccccn1", "HOP-92 NSCLC", "%", -2.58],
  ["O=Nc1ccccc1N=O", "HOP-92 NSCLC", "%", 107],
  ["Oc1ccc(/C=N/NC(=S)Nc2ccccc2)nc1", "HOP-92 NSCLC", "%", -0.553],
  ["COC(=O)c1nc(=S)[nH]c(C(=O)OC)c1C(=O)c1ccccn1", "HOP-92 NSCLC", "%", 47.9],
  ["CN(C)c1ccc(C(=C2C=CC(=[N+](C)C)C=C2)c2ccc(N(C)C)cc2)cc1 (tested in a mixture with another compound)", "HOP-92 NSCLC", "%", -66.8],
  ["CC1(C)CC([P+](c2ccccc2)(c2ccccc2)c2ccccc2)=NN1", "HOP-92 NSCLC", "%", -1.14]
]}

* * *

In this section we review reported growth values for a set of compounds.
system: SR leukemia; assay: NCI-60 one-dose screen, 48 h (100 = growth as untreated, 0 = no growth, -100 = all killed); details: 10 µM unless noted
The panel holds about 83,000 compounds, 20% with a hit somewhere; the sample as a whole holds those more often.

{"columns": ["COMPOUND", "growth [%]"],
 "data": [
  ["N#CSCc1ccc(Cl)c(CSC#N)c1", 8.52],
  ["NC(=O)/C=C/C(=O)c1c(Cl)cccc1Cl", -42],
  ["CC(C)(C)CC(C)(C)c1ccc(OCCSC(=N)N)cc1", -37.7],
  ["O=[N+]([O-])c1ccc2c(N=Nc3ccc4ccccc4c3O)c(O)cc(S(=O)(=O)O)c2c1", 90.3],
  ["CCN(CC)CCOc1ccc(-c2nc3cc(Cl)ccc3s2)cc1", -69.6],
  ["O=C(O)c1c(Cl)c(Cl)c(Cl)c(Cl)c1-c1c2cc(I)c(=O)c(I)c-2oc2c(I)c(O)c(I)cc12", 97.9],
  ["COC(=O)c1nc(=S)[nH]c(C(=O)OC)c1C(=O)c1ccccn1", -3.79],
  ["C/C=C1\\SC(=S)NC1=O", 101],
  ["CCC(CCCN(CC)CCc1ccccc1)OC(=O)c1cc(OC)c(OC)c(OC)c1 (stereo not drawn)", 78.7],
  ["O=C1OCc2cccc3cccc1c23", 93.1],
  ["Oc1c(Cl)c2ccccc2c2ccccc12", 99.2],
  ["CCOC(=O)c1c(C)[nH]c(CO)c1C", 101],
  ["Cc1ccnc2c1ccc1c(C)ccnc12", 4.34]
]}

Recorded values, source PubChem BioAssay (NCI).
